Where do the numbers come from? From ChEMBL document CHEMBL1201862.

system-name: UniProt:Q9GZR1
Sequence (Q9GZR1 whole entry): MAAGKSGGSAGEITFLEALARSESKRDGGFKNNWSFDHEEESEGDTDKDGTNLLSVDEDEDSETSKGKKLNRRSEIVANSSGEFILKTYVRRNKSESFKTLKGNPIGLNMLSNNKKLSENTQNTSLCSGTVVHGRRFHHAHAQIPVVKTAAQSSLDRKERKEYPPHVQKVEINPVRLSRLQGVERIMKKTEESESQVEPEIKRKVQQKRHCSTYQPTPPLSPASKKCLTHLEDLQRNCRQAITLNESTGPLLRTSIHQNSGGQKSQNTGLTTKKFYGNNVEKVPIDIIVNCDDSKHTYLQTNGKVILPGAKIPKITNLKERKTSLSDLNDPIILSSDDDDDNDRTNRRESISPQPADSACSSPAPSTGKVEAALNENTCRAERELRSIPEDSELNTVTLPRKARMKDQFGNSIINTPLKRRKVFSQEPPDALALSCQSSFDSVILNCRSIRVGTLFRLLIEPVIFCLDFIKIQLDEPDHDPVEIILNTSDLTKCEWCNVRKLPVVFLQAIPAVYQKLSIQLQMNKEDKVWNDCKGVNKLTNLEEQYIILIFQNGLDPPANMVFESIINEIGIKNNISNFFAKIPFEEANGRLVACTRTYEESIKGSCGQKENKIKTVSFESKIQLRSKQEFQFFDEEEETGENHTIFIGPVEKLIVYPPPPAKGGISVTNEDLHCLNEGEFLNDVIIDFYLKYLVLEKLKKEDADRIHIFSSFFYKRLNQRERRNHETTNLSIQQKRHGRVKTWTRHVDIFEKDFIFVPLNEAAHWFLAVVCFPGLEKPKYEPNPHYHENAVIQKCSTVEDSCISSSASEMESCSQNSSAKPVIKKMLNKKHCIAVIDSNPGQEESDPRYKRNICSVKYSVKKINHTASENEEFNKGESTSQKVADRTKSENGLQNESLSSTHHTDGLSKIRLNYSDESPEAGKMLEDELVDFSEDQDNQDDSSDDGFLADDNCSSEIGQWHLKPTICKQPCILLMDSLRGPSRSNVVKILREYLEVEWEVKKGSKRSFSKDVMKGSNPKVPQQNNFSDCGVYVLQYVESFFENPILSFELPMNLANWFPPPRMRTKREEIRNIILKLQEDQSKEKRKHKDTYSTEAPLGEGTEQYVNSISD
assay-text: SAR Analysis of small molecule inhibitors of Sentrin-specific protease 6 (SENP6) using a Luminescent assay. [Related pubchem assays (depositor defined):AID2582, AID2599]
Assay type: functional
The source made the active and inactive calls. Cut-off read from the data, not from the text of the source: actives have a measured IC50 and inactives only a lower limit.
Labels: active, inactive

compound_structure=Cc1cc(C(=O)Nc2sc3c(c2C#N)CCC3)no1 assigned_category=inactive
compound_structure=CN(C)S(=O)(=O)c1ccc2nc(NC(=O)c3sc4ccccc4c3Cl)sc2c1 assigned_category=inactive
compound_structure=C(=N/Nc1cc(N2CCCCCC2)nc(N2CCCCCC2)n1)/c1ccccc1 assigned_category=active
compound_structure=Fc1cccc(F)c1-c1nc(/C=C/c2ccccc2)no1 assigned_category=active
